- testDetails: Lipophilicity, log D at pH 7.4 by shake flask method
- conditionSet: buffer

>  <compound>
COc1ccc(C(N)=O)cc1C(=O)Nc1cccc(-c2nncn2C(C)C)n1

>  <logD>
1.5

$$$$
>  <compound>
CC(C)n1cnnc1-c1cccc(NC(=O)c2cccc(-c3ncc[nH]3)c2)n1

>  <logD>
2.4

$$$$
>  <compound>
COc1cc(C)c(S(C)(=O)=O)cc1C(=O)Nc1cccc(-c2nncn2C(C)C)n1

>  <logD>
1.7

$$$$
>  <compound>
CCS(=O)(=O)Nc1ccc(OC)c(C(=O)Nc2cccc(-c3nncn3C(C)C)n2)c1

>  <logD>
2.2

$$$$
>  <compound>
COc1cc(C)c(S(N)(=O)=O)cc1C(=O)Nc1cccc(-c2nncn2C(C)C)n1

>  <logD>
1.6

$$$$
>  <compound>
CNC(=O)c1ccc(OC)c(C(=O)Nc2cccc(-c3nncn3C(C)C)n2)c1

>  <logD>
1.8

$$$$
>  <compound>
COc1ccc(S(C)(=O)=O)cc1C(=O)Nc1cccc(-c2nncn2C(C)C)n1

>  <logD>
1.3

$$$$
>  <compound>
COc1cc(C)c(C(N)=O)cc1C(=O)Nc1cccc(-c2nncn2C(C)C)n1

>  <logD>
1.6

$$$$
>  <compound>
CCS(=O)(=O)Nc1cccc(C(=O)Nc2cccc(-c3nncn3C(C)C)n2)c1

>  <logD>
1.7

$$$$

* * *

The entries below are paired with their reported inhibition.
- assayTarget: Serine/threonine-protein kinase PAK 4 (Homo sapiens) (UniProt O96013)
- Sequence (O96013 whole entry, looked up): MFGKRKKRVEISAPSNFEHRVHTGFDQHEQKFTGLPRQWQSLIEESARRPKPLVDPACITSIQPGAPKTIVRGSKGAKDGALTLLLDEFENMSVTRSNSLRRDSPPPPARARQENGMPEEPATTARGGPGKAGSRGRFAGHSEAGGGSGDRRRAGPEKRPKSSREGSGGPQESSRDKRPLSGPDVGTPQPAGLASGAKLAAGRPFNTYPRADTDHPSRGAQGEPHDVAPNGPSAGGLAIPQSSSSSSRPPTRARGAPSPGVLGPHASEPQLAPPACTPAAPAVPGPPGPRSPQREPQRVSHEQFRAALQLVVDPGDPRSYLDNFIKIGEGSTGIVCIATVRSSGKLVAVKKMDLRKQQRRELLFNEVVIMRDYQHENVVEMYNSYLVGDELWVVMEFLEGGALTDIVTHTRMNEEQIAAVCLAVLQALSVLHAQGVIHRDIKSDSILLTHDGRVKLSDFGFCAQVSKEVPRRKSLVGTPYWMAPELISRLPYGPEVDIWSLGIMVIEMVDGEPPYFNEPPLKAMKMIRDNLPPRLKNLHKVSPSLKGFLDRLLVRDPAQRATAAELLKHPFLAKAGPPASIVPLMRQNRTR
- testDetails: Inhibition of recombinant human GST-tagged PAK4 expressed in baculovirus expression system at 1 uM relative to control

>  <compound>
COc1ccc(S(N)(=O)=O)cc1C(=O)Nc1cccc(-c2nncn2C(C)C)n1

>  <inhibition, %>
8

$$$$
>  <compound>
COc1cc(C)c(C(N)=O)cc1C(=O)Nc1cccc(-c2nncn2C(C)C)n1

>  <inhibition, %>
9

$$$$
>  <compound>
COc1cc(C)c(S(N)(=O)=O)cc1C(=O)Nc1cccc(-c2nncn2C(C)C)n1

>  <inhibition, %>
10

$$$$
>  <compound>
COc1ccc(S(C)(=O)=O)cc1C(=O)Nc1cccc(-c2nncn2C(C)C)n1

>  <inhibition, %>
6

$$$$
>  <compound>
COc1ccc(C(N)=O)cc1C(=O)Nc1cccc(-c2nncn2C(C)C)n1

>  <inhibition, %>
20

$$$$
>  <compound>
COc1cc(C)c(S(C)(=O)=O)cc1C(=O)Nc1cccc(-c2nncn2C(C)C)n1

>  <inhibition, %>
-1

$$$$

* * *

- assayTarget: Fibroblast growth factor receptor 1 (Homo sapiens) (UniProt P11362)
- Sequence (P11362 22-822 limits assumed): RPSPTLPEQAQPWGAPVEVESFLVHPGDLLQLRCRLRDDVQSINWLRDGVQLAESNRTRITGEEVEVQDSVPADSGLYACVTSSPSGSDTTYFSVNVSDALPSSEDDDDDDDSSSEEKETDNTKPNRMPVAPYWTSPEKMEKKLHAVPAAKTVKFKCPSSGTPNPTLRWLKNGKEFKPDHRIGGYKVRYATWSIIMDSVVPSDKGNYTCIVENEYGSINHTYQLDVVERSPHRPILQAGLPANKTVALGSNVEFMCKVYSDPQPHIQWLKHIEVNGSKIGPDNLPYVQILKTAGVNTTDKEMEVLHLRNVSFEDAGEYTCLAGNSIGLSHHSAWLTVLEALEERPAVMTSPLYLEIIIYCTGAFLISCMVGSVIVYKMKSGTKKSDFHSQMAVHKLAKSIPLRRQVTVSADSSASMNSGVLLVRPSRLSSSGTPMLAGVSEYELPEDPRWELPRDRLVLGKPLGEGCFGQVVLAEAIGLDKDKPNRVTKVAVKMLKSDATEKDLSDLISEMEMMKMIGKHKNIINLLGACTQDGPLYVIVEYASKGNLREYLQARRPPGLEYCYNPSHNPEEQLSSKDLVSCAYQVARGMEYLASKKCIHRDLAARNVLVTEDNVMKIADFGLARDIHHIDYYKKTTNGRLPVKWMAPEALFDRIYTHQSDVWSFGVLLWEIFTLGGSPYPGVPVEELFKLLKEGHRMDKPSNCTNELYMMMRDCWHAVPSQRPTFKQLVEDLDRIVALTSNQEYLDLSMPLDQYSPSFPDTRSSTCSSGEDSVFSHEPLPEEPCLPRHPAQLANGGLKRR
- testDetails: Inhibition of recombinant human His-tagged FGFR1 cytoplasmic domain expressed in baculovirus expression system at 1 uM relative to control

>  <compound>
COc1cc(C)c(S(C)(=O)=O)cc1C(=O)Nc1cccc(-c2nncn2C(C)C)n1

>  <units>
%

>  <inhibition>
2

$$$$
>  <compound>
COc1cc(C)c(C(N)=O)cc1C(=O)Nc1cccc(-c2nncn2C(C)C)n1

>  <units>
%

>  <inhibition>
2

$$$$
>  <compound>
COc1ccc(S(N)(=O)=O)cc1C(=O)Nc1cccc(-c2nncn2C(C)C)n1

>  <units>
%

>  <inhibition>
-6

$$$$
>  <compound>
COc1cc(C)c(S(N)(=O)=O)cc1C(=O)Nc1cccc(-c2nncn2C(C)C)n1

>  <units>
%

>  <inhibition>
2

$$$$
>  <compound>
COc1ccc(C(N)=O)cc1C(=O)Nc1cccc(-c2nncn2C(C)C)n1

>  <units>
%

>  <inhibition>
-2

$$$$

* * *

- assayTarget: Mitogen-activated protein kinase 14 (Homo sapiens)
- testDetails: Inhibition of recombinant full length human GST-tagged MAPK14 expressed in Escherichia coli at 1 uM relative to control
readout: inhibition (%)

>  <compound>
COc1ccc(S(C)(=O)=O)cc1C(=O)Nc1cccc(-c2nncn2C(C)C)n1

>  <value>
10

$$$$
>  <compound>
COc1cc(C)c(S(N)(=O)=O)cc1C(=O)Nc1cccc(-c2nncn2C(C)C)n1

>  <value>
4

$$$$
>  <compound>
COc1cc(C)c(C(N)=O)cc1C(=O)Nc1cccc(-c2nncn2C(C)C)n1

>  <value>
7

$$$$
>  <compound>
COc1ccc(S(N)(=O)=O)cc1C(=O)Nc1cccc(-c2nncn2C(C)C)n1

>  <value>
19

$$$$
>  <compound>
COc1ccc(C(N)=O)cc1C(=O)Nc1cccc(-c2nncn2C(C)C)n1

>  <value>
4

$$$$
>  <compound>
COc1cc(C)c(S(C)(=O)=O)cc1C(=O)Nc1cccc(-c2nncn2C(C)C)n1

>  <value>
1

$$$$

* * *

- assayTarget: RAC-alpha serine/threonine-protein kinase (Homo sapiens)
- testDetails: Inhibition of recombinant full length human His-tagged AKT1 expressed in baculovirus expression system at 1 uM relative to control
readout: inhibition (%)

>  <compound>
COc1ccc(S(N)(=O)=O)cc1C(=O)Nc1cccc(-c2nncn2C(C)C)n1

>  <value>
8

$$$$
>  <compound>
COc1cc(C)c(C(N)=O)cc1C(=O)Nc1cccc(-c2nncn2C(C)C)n1

>  <value>
0

$$$$
>  <compound>
COc1cc(C)c(S(N)(=O)=O)cc1C(=O)Nc1cccc(-c2nncn2C(C)C)n1

>  <value>
6

$$$$
>  <compound>
COc1cc(C)c(S(C)(=O)=O)cc1C(=O)Nc1cccc(-c2nncn2C(C)C)n1

>  <value>
1

$$$$
>  <compound>
COc1ccc(S(C)(=O)=O)cc1C(=O)Nc1cccc(-c2nncn2C(C)C)n1

>  <value>
3

$$$$
>  <compound>
COc1ccc(C(N)=O)cc1C(=O)Nc1cccc(-c2nncn2C(C)C)n1

>  <value>
-10

$$$$

* * *

- assayTarget: MAP kinase-activated protein kinase 2 (Homo sapiens)
- testDetails: Inhibition of recombinant full length human His-tagged MAPKAPK2 expressed in Escherichia coli at 1 uM relative to control

>  <compound>
COc1ccc(S(C)(=O)=O)cc1C(=O)Nc1cccc(-c2nncn2C(C)C)n1

>  <units>
%

>  <inhibition>
6

$$$$
>  <compound>
COc1cc(C)c(C(N)=O)cc1C(=O)Nc1cccc(-c2nncn2C(C)C)n1

>  <units>
%

>  <inhibition>
0

$$$$
>  <compound>
COc1cc(C)c(S(N)(=O)=O)cc1C(=O)Nc1cccc(-c2nncn2C(C)C)n1

>  <units>
%

>  <inhibition>
7

$$$$
>  <compound>
COc1ccc(C(N)=O)cc1C(=O)Nc1cccc(-c2nncn2C(C)C)n1

>  <units>
%

>  <inhibition>
10

$$$$
>  <compound>
COc1ccc(S(N)(=O)=O)cc1C(=O)Nc1cccc(-c2nncn2C(C)C)n1

>  <units>
%

>  <inhibition>
13

$$$$
>  <compound>
COc1cc(C)c(S(C)(=O)=O)cc1C(=O)Nc1cccc(-c2nncn2C(C)C)n1

>  <units>
%

>  <inhibition>
-1

$$$$

* * *

- assayTarget: Serine/threonine-protein kinase Chk1 (Homo sapiens) (UniProt O14757)
- Sequence (whole entry): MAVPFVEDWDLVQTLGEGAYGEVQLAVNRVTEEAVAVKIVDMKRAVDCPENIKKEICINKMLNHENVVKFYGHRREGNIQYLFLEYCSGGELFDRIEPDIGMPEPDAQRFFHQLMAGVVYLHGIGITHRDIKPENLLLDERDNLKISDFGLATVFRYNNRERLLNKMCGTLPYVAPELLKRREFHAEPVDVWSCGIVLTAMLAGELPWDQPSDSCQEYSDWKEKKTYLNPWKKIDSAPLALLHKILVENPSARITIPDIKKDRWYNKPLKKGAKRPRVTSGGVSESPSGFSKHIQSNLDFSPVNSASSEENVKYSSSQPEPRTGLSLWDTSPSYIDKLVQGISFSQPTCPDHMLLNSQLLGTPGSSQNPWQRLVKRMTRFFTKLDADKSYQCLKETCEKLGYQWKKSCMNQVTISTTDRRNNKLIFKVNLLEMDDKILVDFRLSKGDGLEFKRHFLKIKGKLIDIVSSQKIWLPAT
- testDetails: Inhibition of recombinant full length human His-tagged CHEK1 expressed in baculovirus expression system at 1 uM relative to control

>  <compound>
COc1ccc(S(N)(=O)=O)cc1C(=O)Nc1cccc(-c2nncn2C(C)C)n1

>  <inhibition, %>
-4

$$$$
>  <compound>
COc1ccc(S(C)(=O)=O)cc1C(=O)Nc1cccc(-c2nncn2C(C)C)n1

>  <inhibition, %>
1

$$$$
>  <compound>
COc1cc(C)c(S(N)(=O)=O)cc1C(=O)Nc1cccc(-c2nncn2C(C)C)n1

>  <inhibition, %>
8

$$$$
>  <compound>
COc1cc(C)c(C(N)=O)cc1C(=O)Nc1cccc(-c2nncn2C(C)C)n1

>  <inhibition, %>
17

$$$$
>  <compound>
COc1cc(C)c(S(C)(=O)=O)cc1C(=O)Nc1cccc(-c2nncn2C(C)C)n1

>  <inhibition, %>
2

$$$$
>  <compound>
COc1ccc(C(N)=O)cc1C(=O)Nc1cccc(-c2nncn2C(C)C)n1

>  <inhibition, %>
34

$$$$
